Target: Glutamate NMDA receptor
Experiment: Inhibition of N-methyl-D-aspartate glutamate receptor (NMDA receptor) from homogenized rat brain membrane, using [3H]-MK-801 as a radioligand
What log10(Ki) was measured for each of the following?
Friendly reminder: values = log10 of Ki, unit µM.

# count of solved cases: 3
CC12NC(Cc3ccc(F)cc31)c1ccc(F)cc12 (stereo unspecified) : -1.51
CCCC12NC(Cc3ccccc31)c1ccccc12 (stereo unspecified) : 0.93
CC12NC(Cc3ccccc31)Cc1ccc(Cl)cc12 (stereo unspecified) : -0.96

Each of the following entries comes with a recorded value; kindly state log10(Ki) for each.
1. CC12NC(Cc3ccc(Br)cc31)c1ccccc12 (stereo in doubt; 88)
2. CN1C2Cc3ccccc3C1(O)c1ccccc1C2
3. O[C@@H]1c2ccccc2C2NC1c1ccccc12 (stereo partly specified)

Key:
1. -1.10
2. 2.46
3. 2.04
